target: T1, ROR1 naturally expressed on human tumor cell lines (A549, Jeko-1, SW620, PA-1) (human, UniProt Q01973 30-937); assay: FACS on SW620 cells naturally expressing ROR1
T1 construct: whole, on cells; also called cells expressing ROR1
T1 sequence (Q01973 30-937): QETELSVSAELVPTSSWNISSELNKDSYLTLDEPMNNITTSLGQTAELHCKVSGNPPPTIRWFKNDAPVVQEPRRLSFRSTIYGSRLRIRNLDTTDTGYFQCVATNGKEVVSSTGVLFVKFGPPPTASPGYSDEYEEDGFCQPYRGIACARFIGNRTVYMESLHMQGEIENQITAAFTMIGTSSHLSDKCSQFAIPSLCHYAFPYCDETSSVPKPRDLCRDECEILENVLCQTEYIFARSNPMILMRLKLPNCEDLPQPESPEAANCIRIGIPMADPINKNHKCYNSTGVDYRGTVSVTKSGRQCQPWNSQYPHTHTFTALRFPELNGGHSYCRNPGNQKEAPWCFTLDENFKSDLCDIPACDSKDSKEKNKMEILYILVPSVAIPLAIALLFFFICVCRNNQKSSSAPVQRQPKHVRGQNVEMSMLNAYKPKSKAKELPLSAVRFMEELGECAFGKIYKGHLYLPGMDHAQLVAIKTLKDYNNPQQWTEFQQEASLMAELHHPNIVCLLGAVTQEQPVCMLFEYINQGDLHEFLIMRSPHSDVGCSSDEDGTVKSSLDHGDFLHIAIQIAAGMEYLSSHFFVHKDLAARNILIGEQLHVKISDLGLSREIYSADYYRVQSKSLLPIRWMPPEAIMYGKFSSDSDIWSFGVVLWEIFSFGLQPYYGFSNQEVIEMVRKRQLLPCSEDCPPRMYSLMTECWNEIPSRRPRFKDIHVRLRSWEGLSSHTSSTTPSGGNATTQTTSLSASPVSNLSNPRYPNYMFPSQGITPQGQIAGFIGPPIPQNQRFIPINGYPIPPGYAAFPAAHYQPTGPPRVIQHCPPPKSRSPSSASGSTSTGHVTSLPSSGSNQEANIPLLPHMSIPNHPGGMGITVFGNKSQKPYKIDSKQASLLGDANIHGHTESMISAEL
parameter.measured: EC50 (nM)
Report only the number, with the unit nM understood.

Quick one: EC50 for hz135A2B10-1.2 (antibody, human IgG1, kappa, V domains shown, Humanized, human IgG1/kappa) VH: QVQLVESGGGLVQPGGSLRLSCAASGFAFSTYGMAWVRQAPGKGLEWVASIHKGGFSTYYPDNVKGRFTISRDNDKNSLYLQMNSLRAEDTAVYYCIRHDWDGAMDYWGQGTLVTVSS VL: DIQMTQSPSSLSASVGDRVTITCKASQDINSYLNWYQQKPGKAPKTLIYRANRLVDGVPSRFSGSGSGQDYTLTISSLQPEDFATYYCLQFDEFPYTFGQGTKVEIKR ?
0.034
